Molecular target: PLK4 (Homo sapiens, UniProt O00444)
Sequence (O00444 whole entry): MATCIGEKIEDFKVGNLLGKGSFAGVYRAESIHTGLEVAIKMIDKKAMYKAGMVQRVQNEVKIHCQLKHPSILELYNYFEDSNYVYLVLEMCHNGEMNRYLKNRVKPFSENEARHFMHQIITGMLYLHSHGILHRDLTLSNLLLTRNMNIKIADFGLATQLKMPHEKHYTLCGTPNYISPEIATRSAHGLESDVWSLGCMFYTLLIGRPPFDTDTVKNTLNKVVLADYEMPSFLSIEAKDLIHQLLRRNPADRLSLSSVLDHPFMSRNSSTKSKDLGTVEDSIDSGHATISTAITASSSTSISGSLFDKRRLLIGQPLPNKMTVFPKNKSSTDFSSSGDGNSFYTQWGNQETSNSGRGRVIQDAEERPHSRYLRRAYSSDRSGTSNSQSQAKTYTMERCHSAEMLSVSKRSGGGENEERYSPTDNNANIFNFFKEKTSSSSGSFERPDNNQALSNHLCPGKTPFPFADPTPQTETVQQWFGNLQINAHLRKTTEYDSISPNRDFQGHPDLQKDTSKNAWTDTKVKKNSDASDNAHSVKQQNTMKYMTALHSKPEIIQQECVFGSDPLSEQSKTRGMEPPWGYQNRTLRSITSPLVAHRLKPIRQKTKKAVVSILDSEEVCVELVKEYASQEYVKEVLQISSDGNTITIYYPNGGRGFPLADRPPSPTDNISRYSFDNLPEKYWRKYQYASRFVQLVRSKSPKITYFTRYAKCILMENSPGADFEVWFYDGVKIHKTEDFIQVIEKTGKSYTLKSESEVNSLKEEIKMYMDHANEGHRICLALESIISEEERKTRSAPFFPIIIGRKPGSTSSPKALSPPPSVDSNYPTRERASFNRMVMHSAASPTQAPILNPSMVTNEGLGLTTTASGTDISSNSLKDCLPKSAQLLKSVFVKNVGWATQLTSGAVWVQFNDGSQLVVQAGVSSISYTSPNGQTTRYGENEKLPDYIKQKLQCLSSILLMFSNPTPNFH
pIC50: −log10 of the molar value.
ENDPOINT LABEL: pIC50

Problem: Give its pIC50 value. Item: CCS(=O)(=O)c1ccc(Sc2nc(Nc3cc(C)[nH]n3)c(OC)c(N3CCN(CCN(C)C)CC3)n2)c(Cl)c1
Result: > 7.00

Problem: And the next one, CCN(CC)c1nc(Sc2ccc(S(=O)(=O)Cc3ccccc3)cc2)nc(Nc2cc(C)[nH]n2)c1OC ?
Result: > 7.00

Problem: And the next one, COc1c(Nc2cc(C)[nH]n2)nc(Sc2ccc(S(=O)(=O)C(C)(C)c3c(F)c(F)cc(F)c3F)cc2F)nc1N1CCC(N)C1 (centres unmarked) ?
Result: > 7.00

Problem: And the next one, COc1c(Nc2cc(C)[nH]n2)nc(Sc2ccc(S(=O)(=O)C(C)(C)c3cccc([N+](=O)[O-])c3F)cc2F)nc1N1CCN(CC(=O)N(C)C)CC1 ?
Result: > 7.00

Problem: And the next one, COc1c(CS(=O)(=O)c2ccc(Sc3nc(Nc4cc(C)[nH]n4)c(OC)c(N4CCN(CCN(C)C)CC4)n3)cc2)cccc1[N+](=O)[O-] ?
Result: > 7.00
